Give measured FPN IC50 for each item. Keep answers brief.
- System under test: T1, human ferroportin (SLC40A1) fused in frame with the GFP protein, stably expressed in HEK293 cells (human, UniProt Q9NP59 1-571)
- T1 sequence (looked up): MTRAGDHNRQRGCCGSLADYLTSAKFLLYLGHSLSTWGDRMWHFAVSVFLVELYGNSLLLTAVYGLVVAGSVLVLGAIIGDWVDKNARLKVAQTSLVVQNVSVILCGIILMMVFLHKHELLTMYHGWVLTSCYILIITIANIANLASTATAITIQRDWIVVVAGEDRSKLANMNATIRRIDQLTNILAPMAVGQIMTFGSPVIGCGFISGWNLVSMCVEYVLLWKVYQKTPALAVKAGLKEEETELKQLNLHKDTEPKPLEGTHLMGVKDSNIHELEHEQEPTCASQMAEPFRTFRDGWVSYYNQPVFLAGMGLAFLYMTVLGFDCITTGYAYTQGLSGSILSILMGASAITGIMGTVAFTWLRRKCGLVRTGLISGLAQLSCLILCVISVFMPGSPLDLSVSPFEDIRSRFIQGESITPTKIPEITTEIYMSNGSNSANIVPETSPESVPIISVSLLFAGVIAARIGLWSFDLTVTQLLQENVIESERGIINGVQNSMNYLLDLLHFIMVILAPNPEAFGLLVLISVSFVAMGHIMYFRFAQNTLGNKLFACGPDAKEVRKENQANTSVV
- Assay overview: cell-based or functional assay
Starred links: 1 amine or outer side, 2 acyl side, 3 side chain; linkers in the order of their positions; H or OH if unused. Positions of bridges follow the written chain, without caps; N, C: chain ends. Non-standard residues stand in square brackets, D forms with d. Groups on a side chain read outwards from the residue. *: point of attachment. γGlu = O=C(O)[C@H](CCC(=O)[*:2])N[*:1]; Palmitoyl = CCCCCCCCCCCCCCCC(=O)*; αMeF = C[C@](N)(Cc1ccccc1)C(=O)O; β3hF = N[C@H](CC(=O)O)Cc1ccccc1; Isovaleryl = CC(C)CC(=O)*
One number for each entry, in nM.

Binder: Isovaleryl-DTHFPCIK([γGlu-Palmitoyl])FEPC-NH2 (disulfide 6-12; SMILES CCCCCCCCCCCCCCCC(=O)N[C@@H](CCC(=O)NCCCC[C@@H]1NC(=O)[C@H]([C@@H](C)CC)NC(=O)[C@@H](NC(=O)[C@@H]2CCCN2C(=O)[C@H](Cc2ccccc2)NC(=O)[C@H](Cc2c[nH]cn2)NC(=O)[C@@H](NC(=O)[C@H](CC(=O)O)NC(=O)CC(C)C)[C@@H](C)O)CSSC[C@@H](C(N)=O)NC(=O)[C@@H]2CCCN2C(=O)[C@H](CCC(=O)O)NC(=O)[C@H](Cc2ccccc2)NC1=O)C(=O)O) [Compd ID 205]
U: nM
FPN IC50: 64

Data point: Isovaleryl-DTH[β3hF]PCIK([γGlu-Palmitoyl])[αMeF]C-NH2 (disulfide 6-10; SMILES CCCCCCCCCCCCCCCC(=O)N[C@@H](CCC(=O)NCCCC[C@@H]1NC(=O)[C@H]([C@@H](C)CC)NC(=O)[C@@H](NC(=O)[C@@H]2CCCN2C(=O)C[C@H](Cc2ccccc2)NC(=O)[C@H](Cc2c[nH]cn2)NC(=O)[C@@H](NC(=O)[C@H](CC(=O)O)NC(=O)CC(C)C)[C@@H](C)O)CSSC[C@@H](C(N)=O)NC(=O)[C@](C)(Cc2ccccc2)NC1=O)C(=O)O) [Compd ID 219] ; FPN IC50 = 182
